# ASSAYED_SYSTEM: T1, BsaWI D145A (UniProt Q6UQ65 1-272, D145A)
# T1 sequence: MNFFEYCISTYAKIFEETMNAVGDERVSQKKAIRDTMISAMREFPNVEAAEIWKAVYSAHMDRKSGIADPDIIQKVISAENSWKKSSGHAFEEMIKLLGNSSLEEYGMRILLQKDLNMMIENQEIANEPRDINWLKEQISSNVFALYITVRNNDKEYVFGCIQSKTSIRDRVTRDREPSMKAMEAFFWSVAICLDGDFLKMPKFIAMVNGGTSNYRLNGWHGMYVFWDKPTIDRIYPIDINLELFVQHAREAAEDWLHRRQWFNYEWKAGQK
# ASSAY_METHOD_TEXT: EMSA; 5 mM Ca2+; EMSA: 40 mM Tris-acetate pH 8.3, 0.1 mg/ml BSA, 10% glycerol, 5 mM CaCl2 or 0.1 mM EDTA, 1 nM DNA, room temperature, 15 min
# EXPERIMENTAL_CONDITIONS: protein: recombinant; chain copies: 4; label: 33P; blunt
READOUT_KIND: pKd
Reminder that pKd means the negative base-10 logarithm of the concentration expressed in mol/L.

Query: What measured pKd goes with SP (dsDNA) DNA 1: GCCTTTCGGTTTACCGGTGTCATTCCGCTG DNA 2: CAGCGGAATGACACCGGTAAACCGAAAGGC ?
Response: 7.77
